- ASSAY_TARGET: Fatty-acid amide hydrolase 1 (Homo sapiens, UniProt O00519)
- Sequence (O00519 whole entry): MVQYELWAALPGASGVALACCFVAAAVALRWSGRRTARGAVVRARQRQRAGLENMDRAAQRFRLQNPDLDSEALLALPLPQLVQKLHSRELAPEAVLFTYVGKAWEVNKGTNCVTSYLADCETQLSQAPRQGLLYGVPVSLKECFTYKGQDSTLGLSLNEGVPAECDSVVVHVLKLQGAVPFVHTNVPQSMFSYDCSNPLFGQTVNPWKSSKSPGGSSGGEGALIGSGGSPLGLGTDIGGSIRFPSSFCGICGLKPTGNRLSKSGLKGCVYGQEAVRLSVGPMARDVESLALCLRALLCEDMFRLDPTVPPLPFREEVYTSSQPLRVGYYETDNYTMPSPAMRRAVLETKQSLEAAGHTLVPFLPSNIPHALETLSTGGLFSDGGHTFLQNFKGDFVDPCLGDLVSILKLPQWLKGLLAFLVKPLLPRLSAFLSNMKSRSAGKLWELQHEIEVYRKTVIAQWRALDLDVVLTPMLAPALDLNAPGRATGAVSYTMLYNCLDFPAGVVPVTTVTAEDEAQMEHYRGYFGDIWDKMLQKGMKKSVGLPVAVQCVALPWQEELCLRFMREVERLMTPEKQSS
- PROCEDURE_SUMMARY: Prodrug activation in COS7 cells overexpressing human FAAH assessed as FAAH-mediated sobetirome formation by measuring compound hydrolysis rate at 100 uM by LC-MS/MS analysis
- Assay type: cell-based
PROPERTY_NAME: Drug metabolism (nmol/mg/min)

Guide cases for Drug metabolism, answers given:
                                   compound                              assay_target  obs_value
0  Cc1cc(OCC(=O)NCC(F)(F)F)cc(C)c1Cc1ccc(O)c(C(C)C)c1  Fatty-acid amide hydrolase 1 (Homo sapiens, UniProt O00519)        4.8
1  Cc1cc(OCC(=O)NCCS(=O)(=O)[O-])cc(C)c1Cc1ccc(O)c(C(C)C)c1.[Na+]  Fatty-acid amide hydrolase 1 (Homo sapiens, UniProt O00519)        8.9
2  CONC(=O)COc1cc(C)c(Cc2ccc(O)c(C(C)C)c2)c(C)c1  Fatty-acid amide hydrolase 1 (Homo sapiens, UniProt O00519)        4.1

[P] Cc1cc(OCC(=O)NCCN)cc(C)c1Cc1ccc(O)c(C(C)C)c1
[Q] CCNC(=O)COc1cc(C)c(Cc2ccc(O)c(C(C)C)c2)c(C)c1
[R] Cc1cc(OCC(=O)NCc2ccccc2)cc(C)c1Cc1ccc(O)c(C(C)C)c1
Hello, I need these entries ordered by Drug metabolism, highest reading first. Thanks! Answer format: the labels, ordered as requested.
P, Q, R
(P: 5.6 nmol/mg/min, Q: 3.4 nmol/mg/min, R: 1.7 nmol/mg/min)
